- Target system: human c-Met on cells (NCI-H441, NCI-H292, U87-MG) (human, UniProt P08581 25-1390)
- Sequence (P08581 other isoform, or with tags, fused parts or gaps limits assumed): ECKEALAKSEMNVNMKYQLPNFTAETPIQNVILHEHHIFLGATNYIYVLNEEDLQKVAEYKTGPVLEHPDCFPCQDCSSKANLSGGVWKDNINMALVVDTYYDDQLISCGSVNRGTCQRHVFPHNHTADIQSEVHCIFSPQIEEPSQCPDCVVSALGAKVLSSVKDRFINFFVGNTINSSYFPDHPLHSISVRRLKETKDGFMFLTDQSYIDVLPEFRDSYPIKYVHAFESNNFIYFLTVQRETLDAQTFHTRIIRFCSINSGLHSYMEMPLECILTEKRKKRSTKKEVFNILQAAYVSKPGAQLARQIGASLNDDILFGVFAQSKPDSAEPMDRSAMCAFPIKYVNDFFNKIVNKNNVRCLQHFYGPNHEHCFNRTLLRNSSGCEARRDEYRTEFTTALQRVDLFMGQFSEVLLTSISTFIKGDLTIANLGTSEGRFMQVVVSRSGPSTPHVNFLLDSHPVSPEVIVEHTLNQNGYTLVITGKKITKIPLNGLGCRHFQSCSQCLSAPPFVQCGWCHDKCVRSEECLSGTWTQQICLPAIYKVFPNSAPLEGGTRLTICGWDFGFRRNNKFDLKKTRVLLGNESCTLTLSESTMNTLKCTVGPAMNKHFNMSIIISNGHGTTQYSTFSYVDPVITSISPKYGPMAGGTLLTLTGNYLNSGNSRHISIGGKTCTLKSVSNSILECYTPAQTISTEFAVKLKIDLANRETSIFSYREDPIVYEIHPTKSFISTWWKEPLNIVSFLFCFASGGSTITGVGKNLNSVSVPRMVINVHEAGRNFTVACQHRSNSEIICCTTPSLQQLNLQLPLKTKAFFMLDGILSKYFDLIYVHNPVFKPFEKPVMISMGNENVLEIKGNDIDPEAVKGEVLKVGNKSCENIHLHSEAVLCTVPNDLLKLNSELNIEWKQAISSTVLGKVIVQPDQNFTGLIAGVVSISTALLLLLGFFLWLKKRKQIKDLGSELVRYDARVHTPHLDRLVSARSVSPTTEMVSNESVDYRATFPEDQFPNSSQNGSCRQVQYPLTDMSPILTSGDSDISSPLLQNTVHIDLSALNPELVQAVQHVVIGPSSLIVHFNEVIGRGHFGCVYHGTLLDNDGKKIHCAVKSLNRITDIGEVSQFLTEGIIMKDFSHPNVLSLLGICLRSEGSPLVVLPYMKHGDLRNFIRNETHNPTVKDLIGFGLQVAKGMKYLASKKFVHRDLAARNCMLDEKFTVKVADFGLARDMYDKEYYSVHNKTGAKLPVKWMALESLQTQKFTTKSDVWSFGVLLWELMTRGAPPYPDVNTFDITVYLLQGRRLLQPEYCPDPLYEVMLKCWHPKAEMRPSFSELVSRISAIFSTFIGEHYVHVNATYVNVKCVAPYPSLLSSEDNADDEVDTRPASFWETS
- Protocol notes: cell-based or functional assay
Outcome measure: pMet inhibition in H441 cells IC50
Write the quantity with the unit trailing the number.

Indicate its recorded pMet inhibition in H441 cells IC50; the binder in question is P114AR7P92-F6 (designed binder, not shown: small tags and cut ends) LPAPKNLVVSRVTEDSARLSWTAPDAAFDSFWIRYFEFLGSGEAIVLTVPGSERSYDLTGLKPGTEYVVNILGVKGGGLSVPLSAIFTT
165 nM

Indicate its recorded pMet inhibition in H441 cells IC50; the binder in question is P114AR7P92-G8 (designed binder, not shown: small tags and cut ends) LPAPKNLVVSRVTEDSARLSWTAPDAAFDSFVIRYFEFLGSGEAIVLTVPGSERSYDLTGLKPGTEYVVQILGVKGGYISIPLSAIFTT
155 nM

Indicate its recorded pMet inhibition in H441 cells IC50; the binder in question is P114AR7P95-B9 (designed binder, not shown: small tags and cut ends) LPAPKNLVVSRVTEDSARLSWTAPDAAFDSFWIRYFEFLGSGEAIVLTVPGSERSYDLTGLKPGTEYVVQILGVKGGSISVPLSAIFTT
9.8 nM

Indicate its recorded pMet inhibition in H441 cells IC50; the binder in question is P114AR7P95-E3 (designed binder, not shown: small tags and cut ends) LPAPKNLVVSRVTEDSARLSWTAPDAAFDSFWIRYFEFLGSGEAIVLTVPGSERSYDLTGLKPGTEYVVQIMGVKGGTVSPPLSAIFTT
205 nM

Indicate its recorded pMet inhibition in H441 cells IC50; the binder in question is P114AR7P95-H8 (designed binder, not shown: small tags and cut ends) LPAPKNLVVSRVTEDSARLSWTAPDAAFDSFWIRYFEFVSKGEAIVLTVPGSERSYDLTGLKPGTEYVVNIMGVKGGSISPPLSAIFTT
210 nM

Measured values drawn from patent US20210301025A1 for this set.
